system: SW-620 colon; test: NCI tumour cell line growth inhibition, 48 h
Hi there, I'd appreciate the recorded TGI for every entry that follows.

Known TGI results, listed for orientation:
Compound	TGI
O=C1OC(c2ccccc2)(c2ccccc2)c2ccc3ccc(F)cc3c21	> 100 µM
CCNc1cc2oc(=O)cc(C(F)(F)F)c2cc1C	> 100 µM
c1cc(CN2CCCNCCNCCCNCC2)ccc1CN1CCCNCCNCCCNCC1	> 100 µM
N#C/C=c1/c2ccccc2n2nc3ccccc3c12	> 100 µM
c1ccc(C(c2cccc3c2ccc2ccccc23)C(c2ccccc2)c2cccc3c2ccc2ccccc23)cc1 (stereo unspecified)	> 100 µM
O=C(NC12CC3CC(CC(C3)C1)C2)C(=O)c1c[nH]c2ccc(Br)cc12	> 100 µM
O=C(O)CN1CCCC(Cc2c[nH]c3ccccc23)C1 (stereo unspecified)	> 100 µM
NCCOCn1cc(Cc2cccc(OCc3ccccc3)c2)c(=O)[nH]c1=O	> 100 µM
O=C(O)C1CCN(Cc2oc(CO)cc(=O)c2O)C1 (stereo unspecified)	> 100 µM
Nc1ncnc2c1ncn2C1OC(CO)C(O)C1NS(=O)(=O)c1ccccc1 (stereo unspecified)	> 100 µM

Let's switch to this compound now.
Problem: Field request: TGI | item: COc1ccc(C2S/C(=C\c3cccc(OC)c3)C(=O)N2NC(=O)Cc2ccccc2)cc1 (stereo unspecified)
Solution: > 100 µM

----------
tested on: MDA-MB-435; assay: NCI tumour cell line growth inhibition, 48 h
*1 amine or outer side, *2 acyl side, *3 side chain or, on linkers, in order; H or OH if unused. Where a SMILES comes first, the peptide text is derived from it. Bridges are numbered along the chain shown (N, C = ends). Roman numbers before positions name the chains, in order. [ ]: non-standard residue; d: D form. Actinocin(9to1) = Cc1c2oc3c(C)ccc(C(=O)[*:1])c3nc-2c(C(=O)[*:2])c(N)c1=O; NMeV = CN[CH](C(=O)O)C(C)C; Sar = CNCC(=O)O
Property measured: TGI (µM)
Numbers only, in µM.

Known TGI results, listed for orientation:
Compound	Unit annotation	TGI
COc1cc(-c2nn(-c3cccc(NC(=O)NCCNS(=O)(=O)c4ccc(Cl)cc4)c3)cc2-c2ccncc2)ccc1Cl	µM	0.515
COC1=CC(=O)c2c(cc(COP(N)(=O)N(CCCl)CCCl)n2C)C1=O (stereo unspecified)	µM	3.2
CC(CN(C)C)S(=O)(=O)c1ccc(-c2cnc(N)c(C(=O)Nc3ccccc3)n2)cc1 (stereo unspecified)	µM	23.8
CCn1c(-c2c(Cl)cc(O)cc2Cl)cc2c(Cl)cc(O)cc21	µM	13
CCN(CC)CCC(=O)OC1C(C)=CC(C)C(=O)CC(C(C)CC2CCC(O)C(OC)C2)OC(=O)C2CCCCN2C(=O)C(=O)[C@@]2(O)OC(CCC2C)CC(OC)\C(C)=C/C=C/C=C/C(C)CC(C)C(=O)C1OC (stereo partly specified)	µM	21.2

Provide TGI values for the following items, in order.
1. c1ccc2[nH]c3c(N=NC4=NCCN4)c4ccccc4c-3nc2c1
2. Cc1c2oc3c(C)ccc(C(=O)OC(C)C4NC(=O)C(C(C)C)N(C)C(=O)CN(C)C(=O)C5CCCN5C(=O)C(C(C)C)NC4=O)c3nc-2c(C(=O)OC(C)C2NC(=O)C(C(C)C)N(C)C(=O)CN(C)C(=O)C3CCCN3C(=O)C(C(C)C)NC2=O)c(N)c1=O (stereo unspecified) (I: cyclo([Sar][NMeV]TVP) / II: cyclo([Sar][NMeV]TVP); linker I:3-II:3 via Actinocin(9to1); configuration not given here)
3. COC1(OC)C2(Cl)C(Cl)=C(Cl)C1(Cl)C1c3ccc(C(C)=O)c4cccc(c34)C12 (stereo unspecified)
4. O=C(NNS(=O)(=O)c1ccc(Br)cc1)c1ccc(Cl)cc1NC(=O)C12CC3CC(CC(C3)C1)C2
5. C=C(C)[C@@H]1C/C=C(/CO)CC[C@H]2O[C@]2(C)CC/C=C(\C)CC1

Solution:
21.8
0.0247
43.5
25.8
29.2

----------
system: K-562 leukemia; experiment: NCI tumour cell line growth inhibition, 48 h; in the data active = GI50 below about 0.43 µM; inactive = the rest
// one of active, inactive, no free text

Consider the following illustrative entries.
Compound	Class name
CCN1C(=O)N(CC)C2C1NN=c1s/c(=C\c3cccs3)c(=O)n12 (stereo not drawn)	active
O=P(O)(O)OCC1OC(n2cnc3c(NCc4ccco4)ncnc32)C(O)C1O (stereo not drawn)	inactive
O=C1/C(=C/c2ccc(F)c(F)c2)CN(C(=O)C(Cl)Cl)C/C1=C\c1ccc(F)c(F)c1	active

Lab note: next compound to report on.
Problem: Record request — test call for "COc1ccc(OC)c(NC(=O)c2cccc(NC3=C(Cl)C(=O)N(Cc4ccccc4)C3=O)c2)c1"
Solution: inactive

----------
Hi there, I'd appreciate the recorded TGI for every entry that follows.
tested on: SR leukemia; assay: NCI tumour cell line growth inhibition, 48 h
Numbers only, in µM.

Smiles entry	TGI, µM
COC(=O)CCCC1(CCCC(=O)OC)CCCCCCCCC(CCCC(=O)OC)(CCCC(=O)OC)C(=O)C1=O	85.5

Problem: Field request: TGI | item: "CCCCCCCN(CCCCCCC)C(=N)c1ccnc2ccccc12"
Solution: 2.96

----------
test system: HCC-2998 colon; test: NCI tumour cell line growth inhibition, 48 h
Property measured: TGI

Known TGI results, listed for orientation:
Compound	System tested	TGI
O=C(O)/C=C/c1ccc[c]([Sb](=[O])([OH])[OH])c1	HCC-2998 colon	> 100 µM
Cc1ccc2[nH]c3c(c2c1)N=c1ccccc1=NO3	HCC-2998 colon	> 100 µM
O=S(c1ccccc1)C1CC2CC3(CCC21O)OCCO3 (stereo unspecified)	HCC-2998 colon	> 100 µM
CC(=O)NNC(=S)/N=C\c1c(O)c2ccccc2oc1=O	HCC-2998 colon	> 100 µM
CC(=Nc1ccccc1)C1=C(O)C(Cc2cccc(F)c2)NC1=O (stereo unspecified)	HCC-2998 colon	3.1 µM

Problem: Field request: TGI | item: CCCCCCCCCC(O)CC(=O)c1c(O)cccc1O (stereo unspecified)
Solution: 26.8 µM

----------
Hi there, I'd appreciate the recorded log10 of TGI for every entry that follows.
system: KM12 colon; assay: NCI tumour cell line growth inhibition, 48 h
*1 amine or outer side, *2 acyl side, *3 side chain or, on linkers, in order; H or OH if unused. Where a SMILES comes first, the peptide text is derived from it. Bridges are numbered along the chain shown (N, C = ends). Roman numbers before positions name the chains, in order. [ ]: non-standard residue; d: D form. Actinocin(9to1) = Cc1c2oc3c(C)ccc(C(=O)[*:1])c3nc-2c(C(=O)[*:2])c(N)c1=O; NMeV = CN[CH](C(=O)O)C(C)C; Sar = CNCC(=O)O
Note: values are log10 of TGI expressed in µM.

Compound	log10 of TGI
COc1cc(NS(C)(=O)=O)ccc1NCc1cnc2ccc3[nH]cccc3c12	1.58
COc1ccc(C(C#N)=C2C=CC(=NO)C=C2)cc1	0.61
Cc1c2oc3c(C)ccc(C(=O)OC(C)C4NC(=O)C(C(C)C)N(C)C(=O)CN(C)C(=O)C5CCCN5C(=O)C(C(C)C)NC4=O)c3nc-2c(C(=O)OC(C)C2NC(=O)C(C(C)C)N(C)C(=O)CN(C)C(=O)C3CCCN3C(=O)C(C(C)C)NC2=O)c(N)c1=O (centres undefined) (I: cyclo([Sar][NMeV]TVP) / II: cyclo([Sar][NMeV]TVP); linker I:3-II:3 via Actinocin(9to1); configuration not given here)	-0.10
N=c1n(CC(=O)NC23CC4CC(CC(C4)C2)C3)c2ccccc2n1CC(=O)NC12CC3CC(CC(C3)C1)C2	0.47

Provide log10 of TGI values for the following items, in order.
1. CCn1c(-c2c(Cl)cc(O)cc2Cl)cc2c(Cl)cc(O)cc21
2. O=c1nc(NC(c2ccccc2)(c2ccccc2)c2ccccc2)ccn1CCCl
3. Cc1c(NC(=O)CCl)c(=O)oc2c(C)c3occc(=O)c3cc12

Solution:
1: 1.79; 2: 1.49; 3: 1.38

----------
test system: NCI/ADR-RES ovarian; assay: NCI tumour cell line growth inhibition, 48 h
*1 amine or outer side, *2 acyl side, *3 side chain or, on linkers, in order; H or OH if unused. Where a SMILES comes first, the peptide text is derived from it. Bridges are numbered along the chain shown (N, C = ends). Roman numbers before positions name the chains, in order. [ ]: non-standard residue; d: D form. Actinocin(9to1) = Cc1c2oc3c(C)ccc(C(=O)[*:1])c3nc-2c(C(=O)[*:2])c(N)c1=O; NMeV = CN[CH](C(=O)O)C(C)C; Sar = CNCC(=O)O
Property measured: TGI

Known TGI results, listed for orientation:
Molecule	System tested	TGI
CCCCCCCCCCCC[N+](C)(C)Cc1ccccc1	NCI/ADR-RES ovarian	> 100 µM
COC12C=C/C(=C(/C(=O)OCCSc3ccnn3C)C(=O)CCCCCCCCC3(OC)C=C/C(=C(/C(=O)OCCSc4ccnn4C)C(=O)CCCCCCCC1)O3)O2	NCI/ADR-RES ovarian	> 32.5 µM
c1ccc2[nH]c3c(N=NC4=NCCN4)c4ccccc4c-3nc2c1	NCI/ADR-RES ovarian	20.1 µM
Cc1cc2c(cc1C)[n+](=O)c(C(=O)/C=C/c1ccc3c(c1)OCO3)c(C)n2[O-]	NCI/ADR-RES ovarian	> 100 µM
Cc1c2oc3c(C)ccc(C(=O)OC(C)C4NC(=O)C(C(C)C)N(C)C(=O)CN(C)C(=O)C5CCCN5C(=O)C(C(C)C)NC4=O)c3nc-2c(C(=O)OC(C)C2NC(=O)C(C(C)C)N(C)C(=O)CN(C)C(=O)C3CCCN3C(=O)C(C(C)C)NC2=O)c(N)c1=O (stereo not drawn) (I: cyclo([Sar][NMeV]TVP) / II: cyclo([Sar][NMeV]TVP); linker I:3-II:3 via Actinocin(9to1); configuration not given here)	NCI/ADR-RES ovarian	> 100 µM

Provide TGI values for the following items, in order.
1. O=C1CCCCC/C1=C\c1cccc([N+](=O)[O-])c1
2. Cn1cc(-c2nc(-c3c[nH]c4ccncc34)cs2)c2ccccc21
3. O=C(O)C(Br)C(Br)C(=O)O (stereo not drawn)
4. C=CCNc1nc(O)c(/C=C2\C=Nc3ncccc32)s1
5. C[C@]12CC[C@@H]3c4ccc(O)cc4CC[C@H]3[C@@H]1CC[C@@H]2NS(=O)(=O)c1cccc(Cl)c1
6. C=C(C)[C@@H]1CC[C@]2(COCCCNCCCN)CC[C@]3(C)[C@H](CC[C@@H]4[C@@]5(C)CC[C@H](OCCCN)C(C)(C)[C@@H]5CC[C@]43C)[C@@H]12
7. CC(CN(C)C)S(=O)(=O)c1ccc(-c2cnc(N)c(C(=O)Nc3ccccc3)n2)cc1 (stereo not drawn)

Solution:
1. 95.5 µM
2. 4.02 µM
3. > 100 µM
4. > 100 µM
5. 8.57 µM
6. 1.87 µM
7. > 100 µM
